target_or_system: T1, FOLR1 on SK-OV-3 cells (ATCC HTB-77) (Homo sapiens (Human), UniProt P15328 25-234)
T1 construct: Endogenous FOLR1 of the cell line; also called cells that are known to express FOLR1
T1 sequence (P15328 25-234 limits assumed): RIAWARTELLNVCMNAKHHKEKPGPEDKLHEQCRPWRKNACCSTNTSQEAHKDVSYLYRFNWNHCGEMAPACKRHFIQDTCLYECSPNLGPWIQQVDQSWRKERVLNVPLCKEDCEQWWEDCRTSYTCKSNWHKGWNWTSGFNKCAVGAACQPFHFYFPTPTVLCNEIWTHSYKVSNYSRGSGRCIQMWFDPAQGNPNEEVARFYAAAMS
method_summary: FACS on SK-OV-3 cells; Alexa Fluor 488 F(ab')2 goat anti-human IgG Fc; MFI
Provide the recorded EC50 (read off the curve) for the entries that follow.

Recorded EC50 (read off the curve), per entry:
chimeric anti-FOLR1 mAb F5 (antibody, V domains shown, also called Chimeric mAb F5) VH: EVQLVESGGELVKPGGSLKLSCAVSGFTFSNYGMSWVRQTPDKRLEWVATISSGGSYTYYPDSVKGRFTISRDNDKNTLYLQMSSLKSEDTAMYYCSTQGSSGYVGYWGQGTTLTVSS VL: DIQMTQSPSSLSAFLGGKVTITCKASQDITNFIGWYQHKPGKGPRLLISYTSILESGIPSRFSGSGSGRDYSFSISNLEPEDIATYYCLQYYNLWTFGGGTKLEIK ... ~400 pM
chimeric anti-FOLR1 mAb F4 (antibody, V domains shown, also called Chimeric mAb F4) VH: EVQLVESGGGLVKPGGSLKLSCAASGFTFSDYGMHWVRQAPEKGLEWVAFISSGSNTIYYADIVKGRFAISRDNAKNTLFLQMASLRSEDTALYYCARLAEWDVAYWGQGTLVTVSA VL: DIVLTQSPATLSVTPGDRISLSCRASQNINNNLHWYQQKSHESPRLLIKFASQSISGIPSRFSGSGSGTDFTLNINGVETEDFGMYFCQQIYSWPQLTFGAGTRLELK ... ~500 pM
chimeric anti-FOLR1 mAb F7 (antibody, V domains shown, also called Chimeric mAb F7) VH: EFQLQQSGPELVKPGASVKISCKASGYSFTDYNMNWVKQSNGKSLEWIGVIDPNYGTTNYNQKFVGKATLTVDQSSITAYMQLNSLTAEDSAVYFCAIKGYGNPAAYWGQGTLVTVSA VL: DIQMTQSPSSLSASLGGKVTITCKASQDINKYLAWYQHEPGKGPRLLIRYTSILESGIPSRFSGSGSGRDYSFSISNLEPEDIATYYCLQYYNLWTFGGGTKLEIK ... ~200 pM

Respectfully, I request EC50 (read off the curve) for each entry included below.
1. chimeric anti-FOLR1 mAb F10 (antibody, V domains shown, also called Chimeric mAb F10) VH: QVQLQQSGPELVKPGASVKISCKASGYAFSSSWMNWVRQRPGKGLEWIGRIYPGDGYTHYNGMFKGKATLTADKSSSTGYMQLSSLTSEDSAVYFCTRHGDFPYWYFDVWGTGTTVTVSS VL: DIQMTQSPASLSASVGESVTITCRASENIDSYLAWYQQKQGKSPQLLVYAATNLAVGVPSRFSGSGSGTQYTLKINSLQSEDVARYYCQHHYSTPPTFGGGTKLEIK
2. chimeric anti-FOLR1 mAb F17 (antibody, V domains shown, also called Chimeric mAb F17) VH: DVQLVESGGGLVQPGGSRKLSCAASGFTFSDFGMHWIRQAPERGLEWVAYMSYTPGTFHYADTVKDRFFISRDNAKNTLFLQMTSLRSDDTAMYYCARVHVGTVDYWGQGTSVTVSS VL: DVVLTQSPATLSVTPGDSVSLSCRASQNINNNLHWFQQKSHESPRLLIKYASQSISGIPSRFSGSGSGTDFTLSINNVETEDFGIYFCQQSNSWPALTFGTGTKVELK

## Result
1. ~900 pM
2. ~800 pM

All values here come from patent US20210002363A1.
